target: ΔF508-CFTR (Homo sapiens, UniProt P13569, DEL508-508); experiment: Membrane potential optical assay (FRET voltage-sensor dyes, VIPR), identification of potentiator compounds; conditions: Table 3; assay not given
Sequence (P13569 with tags, fused parts or gaps DEL508-508): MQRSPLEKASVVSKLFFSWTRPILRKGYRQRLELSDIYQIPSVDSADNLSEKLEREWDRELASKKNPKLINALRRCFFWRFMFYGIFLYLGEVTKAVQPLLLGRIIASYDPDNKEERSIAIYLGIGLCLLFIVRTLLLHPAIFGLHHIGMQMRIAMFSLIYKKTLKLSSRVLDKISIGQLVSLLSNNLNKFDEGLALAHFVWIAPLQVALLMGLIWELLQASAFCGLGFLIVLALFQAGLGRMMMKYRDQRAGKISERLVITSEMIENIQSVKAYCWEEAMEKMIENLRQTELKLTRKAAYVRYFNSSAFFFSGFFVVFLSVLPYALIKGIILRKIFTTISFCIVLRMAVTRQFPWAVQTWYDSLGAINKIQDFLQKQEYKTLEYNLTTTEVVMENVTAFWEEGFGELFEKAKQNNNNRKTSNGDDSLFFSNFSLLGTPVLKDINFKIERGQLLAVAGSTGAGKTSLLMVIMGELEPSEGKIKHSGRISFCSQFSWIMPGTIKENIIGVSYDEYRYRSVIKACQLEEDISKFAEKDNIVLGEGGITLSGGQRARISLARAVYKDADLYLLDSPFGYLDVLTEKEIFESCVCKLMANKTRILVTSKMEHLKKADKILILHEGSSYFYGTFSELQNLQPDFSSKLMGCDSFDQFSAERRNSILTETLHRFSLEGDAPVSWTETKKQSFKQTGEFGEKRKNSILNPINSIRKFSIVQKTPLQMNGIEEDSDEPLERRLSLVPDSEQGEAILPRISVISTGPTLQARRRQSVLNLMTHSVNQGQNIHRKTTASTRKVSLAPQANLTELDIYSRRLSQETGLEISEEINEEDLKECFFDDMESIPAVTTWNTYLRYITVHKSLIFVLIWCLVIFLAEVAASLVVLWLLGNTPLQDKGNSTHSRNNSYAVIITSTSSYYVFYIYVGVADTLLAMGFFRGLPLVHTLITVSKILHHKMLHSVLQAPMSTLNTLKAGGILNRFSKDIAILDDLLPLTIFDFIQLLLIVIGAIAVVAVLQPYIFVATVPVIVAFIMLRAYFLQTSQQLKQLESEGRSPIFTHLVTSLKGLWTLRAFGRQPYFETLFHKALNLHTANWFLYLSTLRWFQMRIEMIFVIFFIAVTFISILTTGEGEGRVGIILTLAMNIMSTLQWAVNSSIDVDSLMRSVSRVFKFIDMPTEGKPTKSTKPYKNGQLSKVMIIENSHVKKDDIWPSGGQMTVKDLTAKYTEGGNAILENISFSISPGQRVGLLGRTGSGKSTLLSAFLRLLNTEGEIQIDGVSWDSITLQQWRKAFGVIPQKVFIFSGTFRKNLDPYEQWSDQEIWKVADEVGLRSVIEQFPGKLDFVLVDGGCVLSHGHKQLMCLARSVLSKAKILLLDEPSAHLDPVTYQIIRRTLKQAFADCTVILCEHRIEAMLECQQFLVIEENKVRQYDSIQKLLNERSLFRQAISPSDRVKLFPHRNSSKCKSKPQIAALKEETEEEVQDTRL
Result Type: EC50

>  <Molecule>
CCOC(=O)Nc1cc(NC(=O)c2c[nH]c3ccccc3c2=O)ccc1CC [Compound 298]

>  <EC50>
< 10 µM

$$$$
>  <Molecule>
O=C(Nc1cc(O)c2ccccc2c1)c1c[nH]c2ccccc2c1=O [Compound 551]

>  <EC50>
< 10 µM

$$$$
>  <Molecule>
CCCc1ccc(NC(C)=O)cc1NC(=O)c1c[nH]c2ccccc2c1=O [Compound 232]

>  <EC50>
10 to 25 µM

$$$$
>  <Molecule>
C[C@@H]1CCCN1c1ccc(NC(=O)c2c[nH]c3ccccc3c2=O)c(C(F)(F)F)c1 [Compound 572]

>  <EC50>
< 10 µM

$$$$
>  <Molecule>
CCc1ccc(N)cc1NC(=O)c1c[nH]c2ccccc2c1=O [Compound 282]

>  <EC50>
< 10 µM

$$$$
>  <Molecule>
CC(=O)Nc1cccc(-c2ccccc2NC(=O)c2c[nH]c3ccccc3c2=O)c1 [Compound 25]

>  <EC50>
10 to 25 µM

$$$$
>  <Molecule>
COc1ccc(OC)c(-c2ccccc2NC(=O)c2c[nH]c3ccccc3c2=O)c1 [Compound 361]

>  <EC50>
< 10 µM

$$$$
>  <Molecule>
CC(C)(C)c1cc(Cl)c(NC(=O)c2c[nH]c3ccccc3c2=O)cc1O [Compound 291]

>  <EC50>
< 10 µM

$$$$

Next, consider the following molecule.
Any idea what EC50 was measured for O=C(Nc1cccnc1Oc1ccc(F)cc1F)c1c[nH]c2ccccc2c1=O [Compound 385] ?
< 10 µM

* * *

target: ΔF508-CFTR (Homo sapiens, UniProt P13569, DEL508-508); construct: expressed in transfected cells; assay: Membrane potential optical assay (FRET voltage-sensor dyes, VIPR), identification of potentiator compounds; assay type: cell-based; conditions: Table 3; assay not given; read-out: % Activity (% Efficacy, relative efficacy)
Consider the following compounds and their measured Emax readings.

>  <Structure Notation>
O=C(Nc1ccc(C2CCCCC2)c(O)c1)c1c[nH]c2ccc(F)cc2c1=O

>  <Value Reported>
25 to 100%

$$$$
>  <Structure Notation>
COc1ncc(-c2ccccc2NC(=O)c2c[nH]c3ccccc3c2=O)c(OC)n1

>  <Value Reported>
25 to 100%

$$$$

Any idea what Emax was measured for COc1cc(N2CCCC2)ccc1NC(=O)c1c[nH]c2ccccc2c1=O ?
25 to 100%

* * *

target: ΔF508-CFTR (Homo sapiens, UniProt P13569, DEL508-508); construct: expressed in transfected cells; test: Membrane potential optical assay (FRET voltage-sensor dyes, VIPR), identification of potentiator compounds; assay type: cell-based; conditions: Table 3; assay not given; read-out: % Activity (% Efficacy, relative efficacy)
Result Type: Emax

>  <Molecule>
Cc1ccc(NC(=O)c2c[nH]c3ccccc3c2=O)cc1C

>  <Emax>
25 to 100%

$$$$

Any idea what Emax was measured for CCc1ccc(NC(=O)c2c[nH]c3ccccc3c2=O)cc1N ?
25 to 100%

Any idea what Emax was measured for CCOc1cccc2c(=O)c(C(=O)Nc3ccc(C(C)C)cc3C(F)(F)F)c[nH]c12 ?
< 25%

Any idea what Emax was measured for Cc1cccc2[nH]cc(C(=O)Nc3cc4[nH]ccc4cc3C(C)(C)C)c(=O)c12 ?
25 to 100%

Any idea what Emax was measured for CC(C)(C)OC(=O)NC1CCCc2ccc(NC(=O)c3c[nH]c4ccccc4c3=O)cc21 (stereo not drawn) ?
> 100%

Any idea what Emax was measured for CCOc1cccc2c(=O)c(C(=O)Nc3cc(O)c(C(C)(C)C)cc3F)c[nH]c12 ?
< 25%

Any idea what Emax was measured for O=C(Nc1ccccc1CCO)c1c[nH]c2ccccc2c1=O ?
< 25%

Any idea what Emax was measured for CCCc1ccc(NC(=O)OC)cc1NC(=O)c1c[nH]c2ccccc2c1=O ?
25 to 100%

Any idea what Emax was measured for CC(C)(C)c1cc2cc[nH]c2cc1NC(=O)c1c[nH]c2ccc(F)cc2c1=O ?
> 100%

* * *

Consider the following molecules and their measured Emax readings.
molecular target: ΔF508-CFTR (Homo sapiens, UniProt P13569, DEL508-508); construct: expressed in transfected cells; test: Membrane potential optical assay (FRET voltage-sensor dyes, VIPR), identification of potentiator compounds; assay type: cell-based; details: Table 3; assay not given; read-out: % Activity (% Efficacy, relative efficacy)

Example molecules with recorded Emax:
>  <Molecule>
O=C(Nc1cc(OCc2ccccc2)c(C2CCCCC2)cc1C(F)(F)F)c1c[nH]c2ccccc2c1=O

>  <Result Type>
Emax

>  <Value Reported>
25 to 100%

$$$$
>  <Molecule>
O=C(Nc1ccccc1)c1c[nH]c2cc(C(F)(F)F)ccc2c1=O

>  <Result Type>
Emax

>  <Value Reported>
25 to 100%

$$$$
>  <Molecule>
Cc1cc(N2CCCC2)ccc1NC(=O)c1c[nH]c2ccccc2c1=O

>  <Result Type>
Emax

>  <Value Reported>
> 100%

$$$$
>  <Molecule>
COc1cccc(-c2ccccc2NC(=O)c2c[nH]c3ccccc3c2=O)c1

>  <Result Type>
Emax

>  <Value Reported>
> 100%

$$$$
>  <Molecule>
Cc1cc(OC(F)(F)F)ccc1NC(=O)c1c[nH]c2ccccc2c1=O

>  <Result Type>
Emax

>  <Value Reported>
25 to 100%

$$$$
>  <Molecule>
Cc1cccc(-c2ccccc2NC(=O)c2c[nH]c3ccccc3c2=O)c1C

>  <Result Type>
Emax

>  <Value Reported>
25 to 100%

$$$$

Any idea what Emax was measured for Cc1cccc2[nH]cc(C(=O)Nc3ccc(N4CCC(F)(F)C4)cc3C(F)(F)F)c(=O)c12 ?
25 to 100%

Any idea what Emax was measured for O=C(Nc1ccccc1Cc1ccccc1)c1c[nH]c2ccccc2c1=O ?
25 to 100%

Any idea what Emax was measured for O=C(Nc1ccccc1-c1ccc(F)cc1)c1c[nH]c2ccccc2c1=O ?
25 to 100%

* * *

Consider the following compounds and their measured Emax readings.
biological target: ΔF508-CFTR (Homo sapiens, UniProt P13569, DEL508-508); construct: expressed in transfected cells; assay: Membrane potential optical assay (FRET voltage-sensor dyes, VIPR), identification of potentiator compounds; assay type: cell-based; details: Table 3; assay not given; read-out: % Activity (% Efficacy, relative efficacy)

Example compounds with recorded Emax:
>  <Structure Notation>
COc1ccc(C(C)(C)C)cc1NC(=O)c1c[nH]c2ccccc2c1=O

>  <Value Reported>
25 to 100%

$$$$
>  <Structure Notation>
COC(=O)[C@@H]1C[C@@H](OC(C)(C)C)CN1c1ccc(NC(=O)c2c[nH]c3ccccc3c2=O)c(C(F)(F)F)c1

>  <Value Reported>
25 to 100%

$$$$
>  <Structure Notation>
COc1c(N)cc(C(C)(C)C)cc1NC(=O)c1c[nH]c2ccccc2c1=O

>  <Value Reported>
< 25%

$$$$
>  <Structure Notation>
Cc1ccc2c(=O)c(C(=O)Nc3cc(O)c(C4(C)CCCCC4)cc3F)c[nH]c2c1

>  <Value Reported>
25 to 100%

$$$$

Any idea what Emax was measured for CC(C)(C)c1c[nH]c2cc(NC(=O)c3c[nH]c4ccccc4c3=O)ccc12 ?
25 to 100%

Any idea what Emax was measured for COc1cc(NC(=O)c2c[nH]c3ccc(F)cc3c2=O)cc(C(F)(F)F)c1 ?
25 to 100%

Any idea what Emax was measured for CCc1cccc(NC(=O)c2c[nH]c3ccccc3c2=O)n1 ?
25 to 100%

Any idea what Emax was measured for CC(C)(CO)c1ccc(NC(=O)c2c[nH]c3ccccc3c2=O)cc1 ?
25 to 100%

Any idea what Emax was measured for CC(C)(C)c1cc(C(F)(F)F)c(NC(=O)c2c[nH]c3ccccc3c2=O)cc1O ?
25 to 100%

* * *

Consider the following molecules and their measured Emax readings.
biological target: ΔF508-CFTR (Homo sapiens, UniProt P13569, DEL508-508); construct: expressed in transfected cells; test: Membrane potential optical assay (FRET voltage-sensor dyes, VIPR), identification of potentiator compounds; assay type: cell-based; details: Table 3; assay not given; read-out: % Activity (% Efficacy, relative efficacy)
Text: […]

>  <Molecule>
O=C(Nc1ccc(N2CCOCC2)nc1)c1c[nH]c2ccccc2c1=O

>  <Emax>
< 25%

$$$$
>  <Molecule>
CC1(c2ccc(NC(=O)c3c[nH]c4cccc(O)c4c3=O)cc2O)CCCCC1

>  <Emax>
< 25%

$$$$
>  <Molecule>
CC(C)(C)c1cc(C(C)(C)C)c(NC(=O)c2c[nH]c3ccc(C#N)cc3c2=O)cc1O

>  <Emax>
< 25%

$$$$
>  <Molecule>
CC1(c2cc(F)c(NC(=O)c3c[nH]c4ccccc4c3=O)cc2O)CCCCC1

>  <Emax>
25 to 100%

$$$$

Any idea what Emax was measured for CCOC(=O)NC1CCCc2ccc(NC(=O)c3c[nH]c4ccccc4c3=O)cc21 (centres unmarked) ?
25 to 100%

Any idea what Emax was measured for CCC(C)c1ccc(NC(=O)c2c[nH]c3ccccc3c2=O)cc1 (centres unmarked) ?
25 to 100%
